# testSystem: T1, human chemokine (C-C motif) receptor 8 (CCR8) (human, UniProt P51685 1-355)
# T1 construct: also called hCCR8
# T1 sequence (P51685 whole entry): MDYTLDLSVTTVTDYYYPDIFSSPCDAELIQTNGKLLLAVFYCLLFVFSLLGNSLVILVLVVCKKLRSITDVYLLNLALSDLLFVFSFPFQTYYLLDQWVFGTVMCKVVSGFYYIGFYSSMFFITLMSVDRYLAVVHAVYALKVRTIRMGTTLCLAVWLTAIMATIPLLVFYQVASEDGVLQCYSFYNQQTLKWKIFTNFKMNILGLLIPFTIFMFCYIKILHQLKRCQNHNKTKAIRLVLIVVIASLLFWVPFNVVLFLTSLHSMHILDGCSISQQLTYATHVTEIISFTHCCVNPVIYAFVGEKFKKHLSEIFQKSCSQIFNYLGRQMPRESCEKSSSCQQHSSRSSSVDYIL
# assayProcedure: flow cytometry blocking, human PBMC, CD3+ gate; % cells stained by competitor PE-AB7 after block
Documented % Positive cells across a set of binders
Report the value in % with no unit label.

Worked set:
{"binder": "anti-CCR8 monoclonal antibody AB8 (antibody, V domains shown, Hybridoma monoclonal; also called antibody 8; clone 8) VH: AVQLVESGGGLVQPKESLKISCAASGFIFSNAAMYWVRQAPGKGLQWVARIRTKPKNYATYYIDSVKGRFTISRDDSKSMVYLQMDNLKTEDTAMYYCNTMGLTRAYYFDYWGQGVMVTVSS VL: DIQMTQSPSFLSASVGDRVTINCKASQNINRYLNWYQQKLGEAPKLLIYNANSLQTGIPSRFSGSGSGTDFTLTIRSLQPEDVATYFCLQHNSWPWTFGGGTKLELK", "% Positive cells (%)": 8.51}
{"binder": "anti-CCR8 monoclonal antibody AB5 (antibody, V domains shown, Hybridoma monoclonal; also called antibody 5; clone 5) VH: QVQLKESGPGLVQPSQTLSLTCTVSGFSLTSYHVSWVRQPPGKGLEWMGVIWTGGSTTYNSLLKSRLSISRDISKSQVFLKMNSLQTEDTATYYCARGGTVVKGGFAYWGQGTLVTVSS VL: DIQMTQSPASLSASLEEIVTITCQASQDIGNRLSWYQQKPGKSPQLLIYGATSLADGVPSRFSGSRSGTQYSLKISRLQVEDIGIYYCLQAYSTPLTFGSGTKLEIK", "% Positive cells (%)": 9.75}

Here's the next entry for you.
Quick check: % Positive cells of anti-CCR8 monoclonal antibody AB6 (antibody, V domains shown, also called antibody 6; clone 6) VH: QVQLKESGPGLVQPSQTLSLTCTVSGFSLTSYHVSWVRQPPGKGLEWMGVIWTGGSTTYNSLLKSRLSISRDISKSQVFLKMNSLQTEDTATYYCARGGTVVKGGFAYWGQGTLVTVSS VL: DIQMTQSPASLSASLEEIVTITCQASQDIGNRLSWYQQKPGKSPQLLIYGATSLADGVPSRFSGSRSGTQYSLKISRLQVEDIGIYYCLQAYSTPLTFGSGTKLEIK ?
1.55
